biological target: full-length beta-Catenin (Uniprot ID P35222) (Homo sapiens, UniProt P35222); construct: 10 nM full-length beta-Catenin (Uniprot ID P35222); test: Fluorescence polarization IC50 (beta-catenin / 5FAM-TCF4 10-53 competition); format: binding; details: fluorescence polarization; read-out: beta-Catenin FP IC50
Sequence (P35222 whole entry): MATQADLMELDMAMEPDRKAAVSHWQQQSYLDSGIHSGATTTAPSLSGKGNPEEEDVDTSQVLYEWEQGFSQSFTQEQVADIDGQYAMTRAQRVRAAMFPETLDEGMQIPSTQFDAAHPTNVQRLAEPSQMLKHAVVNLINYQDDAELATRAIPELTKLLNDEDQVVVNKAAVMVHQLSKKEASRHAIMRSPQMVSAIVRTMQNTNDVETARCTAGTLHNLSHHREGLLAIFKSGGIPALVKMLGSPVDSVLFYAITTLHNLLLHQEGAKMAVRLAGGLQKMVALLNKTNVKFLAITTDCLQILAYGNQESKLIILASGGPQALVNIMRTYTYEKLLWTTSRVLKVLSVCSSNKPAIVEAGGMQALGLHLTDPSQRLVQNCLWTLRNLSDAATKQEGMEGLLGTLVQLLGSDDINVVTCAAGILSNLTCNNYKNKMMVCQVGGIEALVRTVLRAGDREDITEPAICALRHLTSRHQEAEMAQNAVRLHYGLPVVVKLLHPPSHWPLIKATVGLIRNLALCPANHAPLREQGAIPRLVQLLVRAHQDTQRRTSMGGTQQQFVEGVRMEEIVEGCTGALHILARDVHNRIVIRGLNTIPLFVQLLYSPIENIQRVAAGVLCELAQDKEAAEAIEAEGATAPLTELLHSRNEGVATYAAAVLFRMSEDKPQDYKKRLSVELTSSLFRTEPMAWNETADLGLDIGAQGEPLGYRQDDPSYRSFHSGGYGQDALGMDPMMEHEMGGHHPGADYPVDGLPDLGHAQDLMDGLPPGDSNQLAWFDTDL
quantityKind: IC50 (nM)
Give just the numeric value; nM need not be written.

{"compound": "CC(=O)N1CCC[C@]12CC=CCCCC1(CCCC=CCCCOC(=O)N3CC[C@@](C(=O)N[C@@H](Cc4ccccc4Cl)C(=O)N[C@@H](Cc4csc5ccccc45)C(=O)N[C@H](CO)CC(C)C)(C3)NC(=O)[C@H]([C@@H](C)O)NC(=O)[C@H](Cc3ccccc3)NC(=O)[C@H](C)NC(=O)[C@H](C)NC(=O)[C@H](CC(=O)O)NC(=O)[C@H](CC(=O)O)NC1=O)NC(=O)[C@H](CC(C)(C)C)NC(=O)[C@H](CC(=O)O)NC2=O (some centres unmarked)", "unitString": "nM", "IC50": 33}
{"compound": "CC(=O)N1CCC[C@]12CC=CCCCC1(CCCC=CCCCOC(=O)N3CC[C@@](C(=O)N[C@@H](Cc4ccsc4)C(=O)N[C@@H](Cc4csc5ccccc45)C(=O)N[C@@H](CCC(N)=O)C(N)=O)(C3)NC(=O)[C@H](CC(N)=O)NC(=O)[C@H](Cc3ccccc3)NC(=O)[C@H](C)NC(=O)[C@H](C)NC(=O)[C@H](CC(=O)O)NC(=O)[C@H](CCC(N)=O)NC1=O)NC(=O)[C@H](CC(C)(C)C)NC(=O)[C@H](CC(=O)O)NC2=O (some centres unmarked)", "unitString": "nM", "IC50": 56}
{"compound": "CC(=O)N1CCC[C@]12CC=CCCCC1(CCCC=CCCCOC(=O)N3CC[C@@](C(=O)N[C@@H](Cc4ccsc4)C(=O)N[C@@H](Cc4csc5ccccc45)C(=O)N[C@@H](CCC(N)=O)C(N)=O)(C3)NC(=O)[C@H](CC(N)=O)NC(=O)[C@H](Cc3ccccc3)NC(=O)[C@H](C)NC(=O)[C@H](C)NC(=O)[C@H](CC(=O)O)NC(=O)[C@H](CC(=O)O)NC1=O)NC(=O)[C@H](CC(C)(C)C)NC(=O)[C@H](CC(N)=O)NC2=O (some centres unmarked)", "unitString": "nM", "IC50": 11}
{"compound": "CC(=O)N1CCC[C@]12CC=CCCCC1(CCCC=CCCCCCC[C@@](C)(C(=O)N[C@@H](Cc3ccccc3)C(=O)N[C@@H](Cc3csc4ccccc34)C(=O)N[C@@H](CCC(N)=O)C(N)=O)NC(=O)[C@H](CCC(N)=O)NC(=O)[C@H](Cc3ccccc3)NC(=O)[C@H](C)NC(=O)[C@H](C)NC(=O)[C@H](CCC(=O)O)NC(=O)[C@H](Cc3nn[nH]n3)NC1=O)NC(=O)[C@H](C)NC(=O)[C@H](CC(=O)O)NC2=O (some centres unmarked) [I-415]", "unitString": "nM", "IC50": 2200}

Shift focus to the following entry.
For CC(=O)N1CCC[C@]12CC=CCCCC1(CCCC=CCCCOC(=O)N3CC[C@@](C(=O)N[C@@H](Cc4ccccc4C(F)(F)F)C(=O)N[C@@H](Cc4ccc(Cl)c(Cl)c4)C(=O)N[C@@H](C)C(N)=O)(C3)NC(=O)[C@H](CC(C)C)NC(=O)[C@H](Cc3ccccc3)NC(=O)[C@H](C)NC(=O)[C@H](CCC(N)=O)NC(=O)[C@H](Cc3cccc(C(=O)O)c3)NC(=O)[C@H](CC(=O)O)NC1=O)NC(=O)[C@H](CC(C)(C)C)NC(=O)[C@H](CC(=O)O)NC2=O (some centres unmarked) , what is its reported IC50? 21
